# System: U2OS
# assayNotes: Incucyte cell viability with U2OS; also: filed as whole numbers so only -1 and 0 and 1 occur
# Type: toxicity, cell-based
# cond: human, 12 h, 10 µM, compound concentration 10 uM, replicate number 2, timepoint 12 hours
Record form. Attribute: Growth Rate. Fill in for each entry.
One number for each entry.

compound	assayedSystem	Growth Rate
O=C(N1CCS(=O)(=O)CC1)N1C[C@H](c2ccc(OC(F)(F)F)cc2)C[C@H](c2nc(C3CC3)no2)C1 [BAY-386]	U2OS	1

// for each compound in input: emit Growth Rate
1. COc1ccc2c(c1)O[C@H](c1ccc(OC)c(OC)c1)C[C@@H]2NC(=O)C1(c2ccc3c(c2)OC(F)(F)O3)CC1 [A-1596584]
2. COc1ccc(Br)cc1S(=O)(=O)NC(=O)/C=C/c1ccccc1Cc1ccc2ccccc2c1
3. Cc1c(F)cccc1NC(=O)Nc1ccc(Cl)c(S(=O)(=O)[C@H]2CCCNC2)c1O [DANIRIXIN]
4. CC(C)(O)c1cncc(-c2nc3ccc(F)cc3n2C2CC2)c1 [MSD-CYP11B2]
5. C/C(=N\NC(=O)[C@@H]1C(=O)NC[C@H]1c1ccccc1)c1cccc(Br)c1
6. CC1=C2C[C@H]3[C@@H](CC=C4C[C@@H](O)CC[C@@]43C)[C@@H]2CC[C@]12O[C@@H]1C[C@H](C)CN[C@H]1[C@H]2C [CYCLOPAMINE]
7. CC(C)c1ccc(CC(=O)N2CCC[C@@H](c3cccc(OC(C)(C)C(=O)O)c3)C2)cc1

-- reply
1: 0; 2: 1; 3: 1; 4: 1; 5: 0; 6: 1; 7: 1

// for each compound in input: emit Growth Rate
1. NS(=O)(=O)c1cc(NC(=O)Cc2ccccc2)ccc1Oc1cccc(Cl)c1 [BAY-1797]
2. COc1cccc(CNC(=O)c2nc3scc(COCc4ccc(C(=O)O)cc4)c3c(=O)[nH]2)c1 [T-26c]
3. Cc1cc2c(cc1-c1cc(/C=C/C(=O)O)ccc1O)C(C)(C)CCC2(C)C
4. CCOC(=O)c1ccc(C#Cc2ccc3c(c2)C(C)(C)CCS3)nc1 [TAZAROTENE]
5. CC(C)C[C@H](NC(=O)N1CCCCCC1)C(=O)N[C@H](Cc1cn(C)c2ccccc12)C(=O)N[C@H](Cc1ccccn1)C(=O)O

-- reply
1: 0; 2: 0; 3: 0; 4: 1; 5: 1

----------
Record form. Attribute: Population Mitotic Cells (%). Fill in for each entry.
# Test system: Fibroblast
# assayNotes: Multiplex assay against human fibroblast
# Format: toxicity, cell-based
# cond: 24 h, 1 µM, compound concentration 1 uM, replicate 2
One number for each entry, in %.

Known Population Mitotic Cells (%) results, listed for orientation:
molecule	Population Mitotic Cells (%)
Oc1cccc(-c2nc(N3CCOCC3)c3oc4ncccc4c3n2)c1	25
CNC(=O)Nc1ccc2c(c1)CC[C@@]21OC(=O)N(CC(=O)N(Cc2ccc(F)cc2)[C@@H](C)C(F)(F)F)C1=O	50
CCCc1cc(C)[nH]c(=O)c1CNC(=O)c1cc(-c2ccc(N3CCN(C(C)C)CC3)nc2)cc2c1cnn2C(C)C	66

-- ask Quick one: Population Mitotic Cells (%) of "CC[C@@H]1C(=O)N(C)c2cnc(Nc3ccc(C(=O)NC4CCN(C)CC4)cc3OC)nc2N1C1CCCC1" ?
-- reply 0

----------
# System: Fibroblast
# assayNotes: Multiplex assay against human fibroblast
# Format: toxicity, cell-based
# cond: 24 h, 10 µM, compound concentration 10 uM, replicate 2
measurementLabel: Population Fragmented Nuclei (%)
One number for each entry, in %.

Known Population Fragmented Nuclei (%) results, listed for orientation:
compound	assayedSystem	resultUnits	Population Fragmented Nuclei (%)
CC(C)[C@H](CO)Nc1nc(Nc2cccc(Cl)c2)c2ncn(C(C)C)c2n1 [PURVALANOLA]	Fibroblast	%	16
CCCCN(CC)c1nc(C)nc2c1c(C)cn2-c1c(C)cc(C)cc1C.Cl	Fibroblast	%	8
N#CCNC(=O)c1ccc(-c2ccnc(Nc3ccc(N4CCOCC4)cc3)n2)cc1 [MOMELOTINIB]	Fibroblast	%	31

// for each compound in input: emit Population Fragmented Nuclei (%)
1. CCCc1cc(C)[nH]c(=O)c1CNC(=O)c1cc(-c2ccc(N3CCN(C(C)C)CC3)nc2)cc2c1cnn2C(C)C
2. c1ccc(-c2oc3ncnc(NC[C@@H]4CCCO4)c3c2-c2ccccc2)cc1
3. Cl.Cn1c2c(c3ccc(Cl)c(Cl)c31)C(C#N)C1(CCNCC1)NC2=O (centres undefined)
4. CCOc1ccn(-c2ccc(F)cc2)c(=O)c1C(=O)Nc1ccc(Oc2ccnc(N)c2Cl)c(F)c1 [BMS-777607]
5. Cc1ccc(NC(=O)Nc2cc(C(F)(F)F)ccc2F)cc1Nc1ccc2c(c1)NC(=O)/C2=C\c1ccc[nH]1
6. Cc1ccc(S(=O)(=O)NC2c3ccccc3Oc3ccccc32)cc1

-- reply
[8, 14, 42, 54, 54, 10]

----------
Record form. Attribute: Population Mitotic Cells (%). Fill in for each entry.
# Test system: HEK-293T
# assayNotes: Multiplex assay against HEK293T
# Assay type: toxicity, cell-based
# cond: human, 24 h, 1 µM, compound concentration 1 uM, replicate 1
One number for each entry, in %.

molecule	measurementLabel	numericReadout
CC(C)c1cc(Nc2nc(N3CCC[C@H](N)C3)ncc2C(N)=O)cc(C(C)C)n1	Population Mitotic Cells (%)	34

// for each molecule in input: emit Population Mitotic Cells (%)
1. Oc1cccc(-c2nc(N3CCOCC3)c3oc4ncccc4c3n2)c1
2. CCCc1cc(C)[nH]c(=O)c1CNC(=O)c1cc(-c2ccc(N3CCN(C(C)C)CC3)nc2)cc2c1cnn2C(C)C
3. Cc1c(Nc2ccc(S(=O)(=O)N3CCN(C)CC3)cc2F)nc2ccc(-c3cnn(C4CC4)c3)cn2c1=O
4. CCOC(=O)CCNc1cc(N2CCc3ccccc3CC2)nc(-c2ccccn2)n1
5. Cc1ccc(S(=O)(=O)NC2c3ccccc3Oc3ccccc32)cc1
6. CN1C(=O)[C@@H](NC(=O)c2cc3ccccc3[nH]2)N=C(c2ccccc2)c2ccccc21 [DEVAZEPIDE]

-- reply
[52, 20, 84, 79, 58, 51]

// for each molecule in input: emit Population Mitotic Cells (%)
1. CCCCCNC(=N)N/N=C/c1c[nH]c2ccc(OC)cc12.O=C(O)/C=C\C(=O)O [TEGASEROD MALEATE]
2. C[C@@H](Oc1cc(-n2cnc3ccc(CN4CCN(C)CC4)cc32)sc1C(N)=O)c1ccccc1C(F)(F)F

-- reply
1. 53
2. 33

----------
# Test system: U2OS
# assayNotes: Multiplex assay against U2OS
# Assay type: toxicity, cell-based
# cond: human, 24 h, 1 µM, compound concentration 1 uM, replicate 2
Record form. Attribute: Population Membrane Permeable-Phenotype (%). Fill in for each entry.
Answers are plain numbers, in %.

Known Population Membrane Permeable-Phenotype (%) results, listed for orientation:
compound	assayedSystem	numericReadout
Cc1ccc(NC(=O)Nc2cc(C(F)(F)F)ccc2F)cc1Nc1ccc2c(c1)NC(=O)/C2=C\c1ccc[nH]1	U2OS	94
CC[C@H](Nc1ncnc2[nH]cnc12)c1nc2cccc(F)c2c(=O)n1-c1ccccc1	U2OS	32
CN(c1cc(C(F)(F)F)nc(OCCC(=O)O)n1)c1cccc2c1CCC2	U2OS	2
CC(Cc1ccc(O)c(O)c1)C(C)Cc1ccc(O)c(O)c1 (centres undefined) [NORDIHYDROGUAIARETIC ACID]	U2OS	0
CC[C@@H]1C(=O)N(C)c2cnc(Nc3ccc(C(=O)N[C@H]4CC[C@H](N5CCN(CC6CC6)CC5)CC4)cc3OC)nc2N1C(C)C	U2OS	86

// for each compound in input: emit Population Membrane Permeable-Phenotype (%)
1. CC(C)c1cc(Nc2nc(N3CCC[C@H](N)C3)ncc2C(N)=O)cc(C(C)C)n1
2. CCCCN(CC)c1nc(C)nc2c1c(C)cn2-c1c(C)cc(C)cc1C.Cl
3. Cl.NC[C@@H]1O[C@H](C23CC4CC(CC(C4)C2)C3)Cc2c1ccc(O)c2O
4. Cc1c(P(=S)(c2ccccc2)c2ccccc2)n2ccccc2[n+]1C/C=C/c1ccccc1.[Br-]

-- reply
[30, 3, 5, 9]

----------
# Test system: Fibroblast
# assayNotes: Multiplex assay against human fibroblast
# Assay type: toxicity, cell-based
# cond: 24 h, 10 µM, compound concentration 10 uM, replicate 1
The label is y for Population Fragmented Nuclei (%) below 30% and n for Population Fragmented Nuclei (%) equal to or exceeding 30%.

compound	assignedClass
CCCCCNC(=N)N/N=C/c1c[nH]c2ccc(OC)cc12.O=C(O)/C=C\C(=O)O [TEGASEROD MALEATE]	n

-- ask Say whether its Population Fragmented Nuclei (%) is strictly beneath 30%. Entry: CC(Cc1ccc(O)c(O)c1)C(C)Cc1ccc(O)c(O)c1 (centres undefined) [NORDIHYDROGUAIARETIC ACID]
-- reply y

----------
# Tested on: HEK-293T
# assayNotes: Multiplex assay against HEK293T
# Type: toxicity, cell-based
# cond: human, 24 h, 10 µM, compound concentration 10 uM, replicate 1
measurementLabel: Population Fragmented Nuclei (%)
One number for each entry, in %.

Known Population Fragmented Nuclei (%) results, listed for orientation:
compound	Population Fragmented Nuclei (%)
CC[C@@H]1C(=O)N(C)c2cnc(Nc3ccc(C(=O)NC4CCN(C)CC4)cc3OC)nc2N1C1CCCC1	17
c1ccc(-c2oc3ncnc(NC[C@@H]4CCCO4)c3c2-c2ccccc2)cc1	20
C=CC(=O)Nc1cc(-n2c(=O)ccc3cnc4ccc(-c5ccc(NS(C)(=O)=O)cc5)cc4c32)ccc1C	19
Cc1c(P(=S)(c2ccccc2)c2ccccc2)n2ccccc2[n+]1C/C=C/c1ccccc1.[Br-]	36
CCCCCNC(=N)N/N=C/c1c[nH]c2ccc(OC)cc12.O=C(O)/C=C\C(=O)O [TEGASEROD MALEATE]	31
CCOC(=O)CCNc1cc(N2CCc3ccccc3CC2)nc(-c2ccccn2)n1	14
CC(/C=C1\SC(=S)N(CCCC(=O)Nc2ccc(C(=O)O)c(O)c2)C1=O)=C\c1ccccc1	11
CC(C)c1cc(Nc2nc(N3CCC[C@H](N)C3)ncc2C(N)=O)cc(C(C)C)n1	14

// for each compound in input: emit Population Fragmented Nuclei (%)
1. CCOc1ccn(-c2ccc(F)cc2)c(=O)c1C(=O)Nc1ccc(Oc2ccnc(N)c2Cl)c(F)c1
2. CCCCN(CC)c1nc(C)nc2c1c(C)cn2-c1c(C)cc(C)cc1C.Cl
3. Cc1ccc(S(=O)(=O)NC2c3ccccc3Oc3ccccc32)cc1
4. Cc1c(Nc2ccc(S(=O)(=O)N3CCN(C)CC3)cc2F)nc2ccc(Nc3cnn(C4CC4)c3)cn2c1=O
5. N#CCNC(=O)c1ccc(-c2ccnc(Nc3ccc(N4CCOCC4)cc3)n2)cc1
6. Oc1cccc(-c2nc(N3CCOCC3)c3oc4ncccc4c3n2)c1

-- reply
1: 18; 2: 10; 3: 13; 4: 8; 5: 5; 6: 18

// for each compound in input: emit Population Fragmented Nuclei (%)
1. CN1C(=O)[C@@H](NC(=O)c2cc3ccccc3[nH]2)N=C(c2ccccc2)c2ccccc21 [DEVAZEPIDE]
2. CC(C)[C@H](CO)Nc1nc(Nc2cccc(Cl)c2)c2ncn(C(C)C)c2n1
3. Cl.Cn1c2c(c3ccc(Cl)c(Cl)c31)C(C#N)C1(CCNCC1)NC2=O (stereo not given)
4. CN(c1cc(C(F)(F)F)nc(OCCC(=O)O)n1)c1cccc2c1CCC2
5. N#Cc1cccc(C(=O)Nc2cc(-c3ccccc3)nn2-c2ccccc2)c1
6. C[C@@H](Oc1cc(-n2cnc3ccc(CN4CCN(C)CC4)cc32)sc1C(N)=O)c1ccccc1C(F)(F)F

-- reply
1: 16; 2: 6; 3: 19; 4: 12; 5: 7; 6: 26

Recorded values, source ChEMBL document CHEMBL4689842.
